- Experiment Notes: In-vitro cytotoxicity test, Neutral Red uptake
- Format: cell-based, Human
- Measurement Conditions: human, HaCaT keratinocytes, 2.5 µg/ml, 24 hours; read-out: Cell viability (% as compared to the negative control), replicates

[
  {
    "Substance Smiles": "CCCCNc1ccc2nc3cc(NCCOC)c(N)cc3[n+](CCC)c2c1",
    "viability at 24 h, 2.5 µg/ml": "~7.91%"
  }
]

----------
- Experiment Notes: Solution‐state stability test in MH‐II broth
- Assay type: physicochemical
- Measurement Conditions: 512–1 µg mL^−1, 37 °C for a day, centrifuged
Property Measured: Solution state stability (concentration at which visible precipitation was observed)

[
  {
    "Substance Smiles": "CCCCCCCCNc1ccc2nc3cc(NC(C)(C)C)c(N)cc3[n+](CCCCCCCC)c2c1",
    "Recorded Value": "Stable"
  },
  {
    "Substance Smiles": "CCCCNc1cc2nc3ccc(NCCC)cc3[n+](CCC)c2cc1N",
    "Recorded Value": "Stable"
  }
]
